system: K4 kissing-loop RNA reporter; assay: apparent KD of K4 kissing-loop reporter; higher = weaker reporter binding; settings: Eterna round: R107; input ligand: tryptophan 2.4 mM;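 further: bound reporter read as fluorescence of individual clusters on recovered sequencing chips by microscopy, with normalized cluster intensities fitted with a binding model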
value_type: apparent KD of K4 kissing-loop reporter
Lab note: write values as number then unit, every time.

A selection of reference data follows.
input: Name the reported apparent KD of K4 kissing-loop reporter value associated with the sequence GUUACUUCAGAAGGAUAUUAGUAAACAACACGGUAGUGAUGUUACCGUUAUCAAGCCCGGCUUCACUAAGAAGGUCUCCACCGCG [theeternabot_sameState_KL_FMN_B_23]
output: 0.0541 µM

input: Also UGGGAUUUGUCAGGAUAUGAGUGCAGUGAUGUUGCACUUAAUAAAGUACAUAGGCCCUGCUGGCACUCAGAAGGGACGGUGAUGC [Lalasobeer] ?
output: 0.0924 µM

input: Also GGUCCGGGCUCGGCCGCCACUCCCUCCUGCCGCAAGGUGGGAUACCGAGUGAUGUUCGGUUGGAGGAGGACCGGGAGCCCGGACC [#2 Exclusion - Tryptophan B Attempt #14 (HarryS)] ?
output: 0.118 µM

input: Also GUUCGGAUGCGGGAUACCAGCGUACCGAGCAAGCUUCGGGUAGUGAUGUUAUCUGAAUUACGCCCUUGGCAGCCCGCAUCCGGGC [clock_plus] ?
output: 0.256 µM

input: Also CCGACUGCAGGAAGGAGCGGCGGUUGGAGUGAUGUUCCGGGUAGUGAUGUUACCAAGAUCCGCCAGGUAGGUCGCCUGUUGCUCG [Same State Arginine B GF11] ?
output: 0.12 µM

// switching to the query sequence
input: Name the reported apparent KD of K4 kissing-loop reporter value associated with the sequence AGAAACUUGUAUGUCGGGUGUGCGCGCGAUACCAGCCAAAUGGAUGGCCCUUGGCAGCGCAGCGAGUGAUGUUCGCCCGCUUGAC [Exclusion Theophylline A GF 22]
output: 0.232 µM
